# SUBJECT_OF_TEST: human growth hormone secretagogue receptor (hGHS-R1a) (Homo sapiens, UniProt Q92847)
# Sequence (Q92847 whole entry): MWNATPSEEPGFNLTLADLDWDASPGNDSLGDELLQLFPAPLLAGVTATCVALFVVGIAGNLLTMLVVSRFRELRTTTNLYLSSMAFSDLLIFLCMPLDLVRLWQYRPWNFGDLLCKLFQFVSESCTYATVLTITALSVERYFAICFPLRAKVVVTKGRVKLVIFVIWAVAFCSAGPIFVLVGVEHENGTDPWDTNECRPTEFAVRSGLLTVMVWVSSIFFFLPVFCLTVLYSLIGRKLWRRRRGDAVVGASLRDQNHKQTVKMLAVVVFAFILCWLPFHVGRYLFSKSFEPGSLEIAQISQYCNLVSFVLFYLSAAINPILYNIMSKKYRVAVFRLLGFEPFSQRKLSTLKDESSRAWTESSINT
# PROCEDURE_SUMMARY: Competitive radioligand binding assay (ghrelin receptor), standard method A
# TEST_PARAMETERS: binding activity at the human ghrelin receptor, standard method A
pKi: −log10 of the molar value.
QUANTITY: pKi

input: Any idea what its pKi is? The compound is C[C@@H]1C(=O)N[C@H](Cc2ccc(O)cc2)C(=O)N[C@@H](C)CCc2ccccc2OCCN[C@@H](C2CC2)C(=O)N1C [Compound 1083]
output: ≥ 7.00

input: For C[C@@H]1CN[C@@H](C2CC2)C(=O)N(C)[C@H](C)C(=O)N[C@H](Cc2ccc(F)cc2)C(=O)NCCC(C)(C)c2ccccc2O1 [Compound 1071] then?
output: ≥ 6.30

input: For CC1C(=O)NC(Cc2ccc(O)c(F)c2)C(=O)NCCCc2ncccc2OCCNC(C2CC2)C(=O)N1C (mixture of isomers) [Compound 1078] then?
output: ≥ 7.00

----------
# PROCEDURE_SUMMARY: Pharmacokinetic analysis (oral bioavailability, elimination half-life) in the rat
# Assay type: in vivo
# TEST_PARAMETERS: oral administration, 8 mg/kg dose, HPLC-MS
QUANTITY: Elimination Half-life (t1/2, rat, min)
Only the number, expressed in min, is required.

CC(C)C[C@H]1NC(=O)[C@@H](C)N(C)C(=O)[C@H](C2CC2)NCCOc2cc(F)ccc2CCCNC1=O: 116
CC(C)C[C@H]1NC(=O)[C@@H](C)N(C)C(=O)[C@H](C2CC2)NC[C@@H](C)Oc2cccnc2CCCNC1=O: 122

input: Any idea what its Elimination Half-life (t1/2, rat, min) is? The molecule is C[C@@H]1CN[C@@H](C2CC2)C(=O)N(C)[C@H](C)C(=O)N[C@H](Cc2ccc(F)cc2)C(=O)NCCCc2ncccc2O1
output: 46

----------
# PROCEDURE_SUMMARY: Plasma protein binding, rat plasma
# Assay type: in vitro ADME
# TEST_PARAMETERS: test concentration 5 μg/mL
QUANTITY: fraction unbound at 60 min, 5 μg/mL
Output: the number by itself.

input: Any idea what its fraction unbound at 60 min, 5 μg/mL is? The molecule is CC(C)C[C@H]1NC(=O)[C@@H](C)N(C)C(=O)[C@H](C2CC2)NC[C@@H](C)Oc2ccccc2CC[C@H](C)NC1=O
output: 0.16

----------
# SUBJECT_OF_TEST: human growth hormone secretagogue receptor (hGHS-R1a) (Homo sapiens, UniProt Q92847)
# PROCEDURE_SUMMARY: Competitive radioligand binding assay (ghrelin receptor), standard method A
# TEST_PARAMETERS: binding activity at the human ghrelin receptor, standard method A
# From the text: A competitive binding assay at the human growth hormone secretagogue receptor (hGHS-R1a) can be carried out analogously to assays described in the literature. (Bednarek, M. A.; et al. J. Med. Chem. 2000, 43, 4370-4376; Palucki, B. L.; et al. Bioorg. Med. Chem. Lett. […], 11, 1955-1957.) See also U.S. patent application Ser. Nos. 11/149,512 and 11/149,731. Binding activity at the gherlin receptor for representative compounds of the present invention is shown in the Examples below.
pKi: −log10 of the molar value.
QUANTITY: pKi

Consider the reported pKi for these molecules:
CC[C@H](C)[C@@H]1NC[C@@H](C)Oc2ccccc2CCCNC(=O)[C@@H](Cc2ccncc2)NC(=O)[C@@H](C)N(C)C1=O [Compound 978]: ≥ 7.00
C[C@@H]1CN[C@@H](C2CC2)C(=O)N(C)[C@H](C)C(=O)N[C@H](C(C)(C)C)C(=O)NCCCc2ccccc2O1 [Compound 1014]: ≥ 6.30

Now for a further molecule.
input: What value of pKi on human growth hormone secretagogue receptor (hGHS-R1a) (Homo sapiens, UniProt Q92847) does C[C@@H]1CN[C@@H](C2CCCCC2)C(=O)N(C)[C@H](C)C(=O)N[C@H](Cc2ccc(F)cc2)C(=O)NCCCc2ccccc2O1 [Compound 982] have?
output: ≥ 9.00
